System: UACC-62 melanoma
Protocol: NCI tumour cell line growth inhibition, 48 h
Label Yes when TGI is at or above 20 µM; otherwise label No.

Query string: Entry CCOC(=O)C[C@@]12CCCNC1(C)CCc1ccccc12 (stereo not given in full) : is its TGI no less than 20 µM?
Result string: Yes

Query string: Entry C[N+](C)=c1nc(N2CCOCC2)ss1 : is its TGI no less than 20 µM?
Result string: Yes

Query string: Entry O=C(O)[C@@H]1CCCC[C@@H]1C(=O)N(C1CCCCC1)C1CCCCC1 : is its TGI no less than 20 µM?
Result string: Yes

Query string: Entry COc1cc2cc(Oc3ccc(NC(=O)c4cccc5c4OCCO5)cc3)c(C)nc2cc1OC : is its TGI no less than 20 µM?
Result string: Yes

Query string: Entry CCOC(=O)/C(C#N)=C/N(CC)/N=C/c1ccccc1 : is its TGI no less than 20 µM?
Result string: Yes

* * *

Tested on: HCT-116 colon
Protocol: NCI tumour cell line growth inhibition, 48 h
Reported TGI is given for each of the following compounds.

NC(=S)N/N=C\CC(O)(C(F)(F)F)C(F)(F)F ... > 10 µM
CC(=O)CC1(C)OC(N)=C(C#N)C1(C#N)C#N (stereo unspecified) ... > 100 µM
NC(=O)c1c[se]c(C2OC(COP(=O)(O)CP(=O)(O)OCC3OC(n4cnc5c(N)ncnc54)C(O)C3O)C(O)C2O)n1 (stereo unspecified) ... > 100 µM
Cc1cc2occ(-c3ccc(Cl)cc3)c2c(=O)o1 ... > 100 µM
O=C(CSc1nc2ccc(I)cc2c(=O)n1Cc1ccccc1)NN1C(=O)CCC1=O ... > 100 µM
CC(C)(CO)N=Cc1ccccc1[O-].CC(C)(CO)N=Cc1ccccc1[O-].[Co+2] ... > 100 µM
OC12CCCCCC1(N1CCOCC1)c1ccccc12 (stereo unspecified) ... > 100 µM
CCN(CC)CCN(C)CCc1ccc(Br)cc1 ... > 100 µM

Query string: Send back HCT-116 colon TGI of COc1ccc(/C=C(/C(=O)n2cnnn2)c2cc(OC)c(OC)c(OC)c2)cc1 only.
Result string: > 100 µM

Query string: Send back HCT-116 colon TGI of c1ccc([P+](c2ccccc2)(c2ccccc2)c2ccc([P+](c3ccccc3)(c3ccccc3)c3ccccc3)cc2)cc1 only.
Result string: > 100 µM

Query string: Send back HCT-116 colon TGI of CCOC(=O)C1CCCCc2sc(N)c(C#N)c21 (stereo unspecified) only.
Result string: > 100 µM

Query string: Send back HCT-116 colon TGI of C=CC(=O)Nc1cccc(Nc2nc(Nc3ccc(OCCOC(F)F)cc3)ncc2F)c1 only.
Result string: 20 µM

Query string: Send back HCT-116 colon TGI of O=c1c2c(nc3n1CCC3)sc1c(O)c(Br)ccc12 only.
Result string: 35.2 µM

Query string: Send back HCT-116 colon TGI of O=c1[nH]c2cc(Cl)c(Cl)cc2n2cc3ccccc3c12 only.
Result string: 35.3 µM

Query string: Send back HCT-116 colon TGI of CC(C)=CCC[C@@H](C)c1c2[nH]c3ccccc3sc-2c(C)c(=O)c1=O only.
Result string: 21.8 µM

* * *

Reported TGI is given for each of the following molecules.
System: HOP-92 NSCLC
Protocol: NCI tumour cell line growth inhibition, 48 h

These solved cases illustrate the format of a correct answer.
COc1ccc2cc(-c3c(-c4ccncc4)nc(-c4ccc(S(C)=O)cc4C)n3C)ccc2c1 (centres undefined) ... > 25 µM
NC(=O)C(=O)n1ncc(Cl)c(Cl)c1=O ... > 57.8 µM
CCOC(=O)c1nc2ccccc2nc1NCc1ccc(Cl)cc1Cl ... > 100 µM

Query string: Supply reported TGI belonging to this molecule: CCCCCCCCCCCCCCCCS(=O)(=O)c1ccc(NN)cc1
Result string: > 10 µM

Query string: Supply reported TGI belonging to this molecule: CCN(CC)CCN(C)CCc1ccc(Br)cc1
Result string: > 100 µM

Query string: Supply reported TGI belonging to this molecule: COC(=O)C(C(=O)C(=O)NC1Nc2ccc(C)cc2S1)c1nc2ccc(Cl)cc2[nH]c1=O (centres undefined)
Result string: > 100 µM

Query string: Supply reported TGI belonging to this molecule: Cn1c(=O)sc2cc(C(=S)N3CCOCC3)ccc21
Result string: > 100 µM

Query string: Supply reported TGI belonging to this molecule: NC(=S)N/N=C\CC(O)(C(F)(F)F)C(F)(F)F
Result string: > 10 µM

Query string: Supply reported TGI belonging to this molecule: Cc1cc2n([O-])cccc-2[n+](=O)c1
Result string: > 100 µM
